tested target: Calcitonin gene-related peptide type 1 receptor (Homo sapiens, UniProt O60894+Q16602)
Sequence (Q16602 whole entry, one chain of several): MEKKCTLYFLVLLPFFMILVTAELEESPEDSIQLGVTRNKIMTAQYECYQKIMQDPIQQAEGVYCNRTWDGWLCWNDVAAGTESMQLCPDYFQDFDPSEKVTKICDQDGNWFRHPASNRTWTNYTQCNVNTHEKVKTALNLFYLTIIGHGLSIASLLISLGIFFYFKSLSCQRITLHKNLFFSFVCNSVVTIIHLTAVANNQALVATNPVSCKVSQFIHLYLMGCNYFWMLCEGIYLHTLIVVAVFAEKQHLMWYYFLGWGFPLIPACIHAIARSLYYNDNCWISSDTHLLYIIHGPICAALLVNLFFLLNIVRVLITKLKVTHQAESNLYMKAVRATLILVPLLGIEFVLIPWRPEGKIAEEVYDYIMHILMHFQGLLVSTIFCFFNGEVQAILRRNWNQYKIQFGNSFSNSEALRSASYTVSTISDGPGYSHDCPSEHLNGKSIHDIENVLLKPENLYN
test name: Affinity against human calcitonin gene related peptide receptor (1 uM) expressed in SK-N-MC cells using [125I]-CGRP as radioligand after 180 minutes of incubation at pH 7.40
pIC50: −log10 of the molar value.
measurement label: pIC50

[1] NCCCC[C@@H](NC(=O)[C@H](Cc1cc(Br)c(N)c(Br)c1)NC(=O)CCCc1ccccc1)C(=O)N1CCN(c2ccncc2)CC1
[2] NCCCC[C@@H](NC(=O)[C@H](Cc1cc(Br)c(O)c(Br)c1)NC(=O)N1CCC(n2cc(-c3ccccc3)[nH]c2=O)CC1)C(=O)N1CCN(c2ccncc2)CC1
When 1 and 2 are compared, which has the higher number for pIC50? State the label of the item chosen.
2
